Parameter: GI50. Scope: all listed entries.
# Test system: LOX IMVI
# TEST DESCRIPTION: NCI tumour cell line growth inhibition, 48 h
Activity calls are given as the source filed them. Cut-off read from the data, not from the text of the source: active = GI50 up to about 1.1 µM and inactive = higher.
REPORTED PROPERTY: GI50

                                  structure               result
0  CCN(CC)CCOC(c1ccccc1)c1ccccc1.CCOC(=O)Nc1ccc(S(=O)(=O)NCCCl)cc1.CCOC(=O)Nc1ccc(S(=O)(=O)NCCCl)cc1.Nc1ccc(C(=O)O)c(O)c1  > 100 µM (inactive)
1                      CCCCCCCCCCOC(=O)NCCC   18.2 µM (inactive)
2       CCNC(=S)NNC(=O)C12CC3CC(CC(C3)C1)C2  > 100 µM (inactive)

* * *

# Tested on: BT-549
# TEST DESCRIPTION: NCI tumour cell line growth inhibition, 48 h
Activity calls are given as the source filed them. Cut-off read from the data, not from the text of the source: active = GI50 up to about 1.1 µM and inactive = higher.
REPORTED PROPERTY: GI50

                                   molecule               result
0  O=[N+]([O-])c1ccc(S(=O)(=O)Cc2ccccc2)c([N+](=O)[O-])c1    2.1 µM (inactive)
1           COc1cc(Br)c(OC)c2c(OC)cc(C)cc12   96.6 µM (inactive)
2                       NC(=O)C/C=C/CC(N)=O  > 100 µM (inactive)
3  NC(=O)C(c1ccccc1)N1OC2C(=O)N(Cc3ccccc3)C(=O)C2C1c1cccc(Oc2ccc(Cl)cc2)c1 (stereo not given)     34 µM (inactive)
4  Cc1ccc([N+](=O)[O-])cc1NC(=O)C(=O)C1CCC2=C(Sc3ccccc3N2)C1=O (stereo not given)  > 100 µM (inactive)
5  COc1cccc(N2CCc3c(C)c(C#N)c4nc5ccccc5n4c32)c1  > 100 µM (inactive)
6  CC1N[B@@-](C)(c2ccc(C(F)(F)F)cc2)OC1c1ccccc1 (stereo not given in full)  > 100 µM (inactive)
7  O=[N+]([O-])c1cc(Cl)ccc1S(=O)(=O)c1cc(Cl)cc2c1NCCC2   56.9 µM (inactive)
8  CC(NC(=O)CNP(=O)(c1ccccc1)c1ccccc1)C(=O)NC(Cc1ccccc1)C(=O)OCc1ccccc1 (stereo not given)  > 100 µM (inactive)
9  COc1ccc(C2N(c3ccc(F)c([N+](=O)[O-])c3)C(=O)N3C(c4ccc(OC)cc4)N(c4ccc(F)c([N+](=O)[O-])c4)C(=O)N23)cc1 (stereo not given)  > 100 µM (inactive)

* * *

# Tested on: SF-268
# TEST DESCRIPTION: NCI tumour cell line growth inhibition, 48 h
Active and inactive are the calls of the source. No stated cut-off is given here; in the data, active = GI50 up to about 1.1 µM and inactive = higher.
Outcomes: Yes (active), No (inactive)

COMPOUND	ASSIGNED CATEGORY
C=CCC1(CN(C)C)CC/C(=C\c2ccc(Cl)cc2)C1=O (stereo not given)	No
O=C(NC(=O)c1ccccc1[N+](=O)[O-])Nc1ccc(Oc2ncc(Cl)cn2)c([N+](=O)[O-])c1	Yes
COc1cc(/C=N/c2ccccn2)cc(OC)c1OC	No
CC(=O)[C@@H]1[C@@H](OC(=O)CCC(C)COC2OC(CO)C(O)C(O)C2O)C[C@H]2[C@@H]3CC=C4C[C@@H](OC5OC(CO)C(OC6OC(C)C(O)C(O)C6O)C(O)C5OC5OC(C)C(O)C(O)C5O)CC[C@]4(C)[C@H]3CC[C@]12C (stereo not given in full)	No
O=c1[nH]nc(-c2ccccc2)n1/N=C/c1c[nH]c2ccccc12	No

* * *

# Test system: SK-MEL-5
# TEST DESCRIPTION: NCI tumour cell line growth inhibition, 48 h
Activity calls are given as the source filed them. Cut-off read from the data, not from the text of the source: active = GI50 up to about 1.1 µM and inactive = higher.
// GI50 lookup, one value per entry
REPORTED PROPERTY: GI50

                                   molecule               result
0  COc1c(OC)c(OC)c(-c2cc(=O)c3c(OC)c(OC)c(OC)c(OC)c3o2)c(OC)c1OC   24.2 µM (inactive)
1          CC1=NN(c2nc(N)nc(CF)n2)C(C)(C)C1  > 100 µM (inactive)
2  CCN(CC)CCNc1ccc2ncn3c4c(OC)ccc(OC)c4c(=O)c1c23   17.2 µM (inactive)
3  CC1(C)CNCC(C)(OCc2ccccc2)C(=O)NC(C)(C)CNCC(C)(OCc2ccccc2)C(=O)N1 (stereo not given)   > 10 µM (inactive)
4          Cc1ccc2cccc(-c3cccc4ccccc34)c2n1   16.1 µM (inactive)
5  COc1cc2c(cc1OC)C(C)N(C)c1c-2c(OC(C)=O)cc2cc(OC)c(OC)cc12 (stereo not given)   4.67 µM (inactive)
6       O=C(Oc1ccccc1)c1cc2cc(CCl)ccc2oc1=O   12.8 µM (inactive)
7  CC(=S)NC1C(Oc2ccc3c(C)cc(=O)oc3c2)OC(CO)C(O)C1O (stereo not given)  > 100 µM (inactive)
8              CC1(C)CCC(=O)c2c(O)ccc(O)c21  > 100 µM (inactive)
9         CCOC(=O)Nc1[nH]cc(-c2ccccc2)c1C#N  > 100 µM (inactive)

* * *

Examples of molecules with documented GI50 follow.
# Tested on: SK-OV-3
# TEST DESCRIPTION: NCI tumour cell line growth inhibition, 48 h
Calls of active or inactive are those of the source. No stated cut-off is given here; in the data, active = GI50 up to about 1.1 µM and inactive = higher.
REPORTED PROPERTY: GI50

>>> df
                                    molecule               result
 0  Cc1cc(C)cc(C(=N)c2ccccc2Cc2cccc3ccccc23)c1   17.5 µM (inactive)
 1  O=C(CCCN1CCC2(CC1)CC(=O)N(N1CCCCCC1)C2=O)c1ccccc1  > 100 µM (inactive)
 2  N/C(=C\c1ccc(/C=C(\NC(=O)c2ccccc2)c2nc3c([nH]2)C(=O)c2ccccc2C3=O)cc1)c1nc2c([nH]1)C(=O)c1ccccc1C2=O   24.1 µM (inactive)
 3                        O=C(O)CCSCc1ccccc1  > 100 µM (inactive)
 4  OC(C/C(=N\N1CCCCC1)c1cccs1)(C(F)(F)F)C(F)(F)F   > 10 µM (inactive)
 5   CCCNc1c(Cl)cc(Cl)c2[nH]c3ccccc3c(=O)c12   75.9 µM (inactive)
 6  CSc1nc(NC2OCC(O)C(O)C2O)c(N)c(=O)[nH]1 (stereo not given)  > 100 µM (inactive)
 7      Cc1[nH]c2ccccc2c1C(=O)/C=C/c1ccccc1O  > 100 µM (inactive)
 8  CC1CN=C(N(Cc2ccccc2)C(=O)Nc2ccc(Cl)c(Cl)c2)S1 (stereo not given)   52.4 µM (inactive)
 9  O=c1[nH]c2c(C(F)(F)F)c(Cl)c(-c3ccccc3)nc2o1   23.6 µM (inactive)
10  Cc1ccc(C(=O)O)cc1NC(=O)c1cc(/C=C/c2ccccc2)[nH]c(=S)n1  > 100 µM (inactive)
11     Cc1ccc(S(=O)(=O)NC(=O)Nc2nc[nH]n2)cc1  > 100 µM (inactive)
12  Cc1c(/C=N\NC(=S)N(C)CCN(C)C(=S)N/N=C\c2c(C)n(C)n(-c3ccccc3)c2=O)c(=O)n(-c2ccccc2)n1C  > 100 µM (inactive)
13  O.O=C([O-])c1ccccc1Nc1ccccc1C(=O)[O-].[Zn+2]   20.4 µM (inactive)
14       O=C1/C(=C/c2ccc(Cl)cc2)CCCc2ccccc21   43.1 µM (inactive)

* * *

# Test system: SK-MEL-2
# TEST DESCRIPTION: NCI tumour cell line growth inhibition, 48 h
Activity calls are given as the source filed them. No stated cut-off is given here; in the data, active = GI50 up to about 1.1 µM and inactive = higher.
Outcome codes: active, inactive

In [3]: df
Out[3]:
                                    molecule  system_tested  assigned_category
 0           COc1cc(Br)c(OC)c2c(OC)cc(C)cc12       SK-MEL-2           inactive
 1  CC1(C)OCC(C2OC(OC(=O)c3ccc(C(F)(F)F)cc3)C3OC(C)(C)OC23)O1 (stereo not given)       SK-MEL-2           inactive
 2  COC1(C)C(=O)N2C1N(C(=O)OCc1ccccc1)CC2(C)C (stereo not given)       SK-MEL-2           inactive
 3  O=C(CCCN1CCC2(CC1)CC(=O)N(N1CCCCCC1)C2=O)c1ccccc1       SK-MEL-2           inactive
 4  CC(NC(=O)OC(C)(C)C)C(=O)NC(Cc1ccccc1)C(=O)NCC(=O)ON=C1CCCC1 (stereo not given)       SK-MEL-2           inactive
 5  COc1cccc(C2c3cc4c(cc3OC(NNc3ccccc3)C2C)OCO4)c1OC (stereo not given)       SK-MEL-2           inactive
 6         N#Cc1c(N2CCCC2)ncn(Cc2ccccc2)c1=O       SK-MEL-2           inactive
 7  O.O=C([O-])c1ccccc1Nc1ccccc1C(=O)[O-].[Zn+2]       SK-MEL-2           inactive
 8  COc1cc2c(c3c1c(=O)c1ccccc1n3C)C=C([N+](=O)[O-])C(C)(C)O2       SK-MEL-2             active
 9  Cc1nc2c(N3CCCC3)nc(N3CCNCC3)nc2nc1NCc1ccccc1       SK-MEL-2           inactive
10  O=C(Cc1cccs1)N[C@@H]1C(=O)N2C(C(=O)OC(c3ccccc3)c3ccccc3)=C(CO)CS[C@H]12       SK-MEL-2           inactive
11                        NCCCNCCS [WR-1065]       SK-MEL-2           inactive
12           N#Cc1cccc(-n2[nH]c(=O)ccc2=O)c1       SK-MEL-2           inactive
13  Cc1c(-c2ccccc2)c(C#N)c2nnn(C3CCCCC3)c(=O)n12       SK-MEL-2           inactive
14  COc1ccc(\N=C/C=C/C(=C/COC(C)=O)OC(C)=O)cc1       SK-MEL-2           inactive
